Assay: solvent given as SMILES
Conditions: in CN1CCCCC1=O
quantity: solvation free energy, 298 K (kJ/mol)
I only need the number, in kJ/mol, no unit after it.

Worked examples, 4 compounds total:
INSERT INTO measurements (smiles_text, quantity, assay_value) VALUES
  ('CCCC(C)C', 'solvation free energy, 298 K', -10.8),
  ('C1CCCCC1', 'solvation free energy, 298 K', -14.1),
  ('Cc1ccccc1', 'solvation free energy, 298 K', -21),
  ('CC(C)OC(C)C', 'solvation free energy, 298 K', -13.7);

State, in one line, measured solvation free energy, 298 K of `CCC(C)C`
-8.41

State, in one line, measured solvation free energy, 298 K of `C1=CCCCC1`
-15.7
